- assay-notes: in vivo
- Design: species or system New Zealand Red/White F1 Cross rabbits
- condition-context: female, New Zealand Red/White F1 Cross, rabbit
measured-property: Cmax

Quick one: Cmax for CS(=O)(=O)c1cccc(C[C@H](NC(=O)c2c(Cl)cc3c(c2Cl)CCN(C(=O)c2ccc4ccoc4c2)C3)C(=O)O)c1 [lifitegrast, Lifitegrast] ? ≤ 36 ng/g
